The reader will find reported inhibition values listed item by item below.
target: Tyrosine-protein kinase Mer (Homo sapiens) (UniProt Q12866); details: at 1 µM;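 further: values are mean inhibition of human MER kinase, from the GSK PKIS profiling panel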
Sequence (Q12866 whole entry): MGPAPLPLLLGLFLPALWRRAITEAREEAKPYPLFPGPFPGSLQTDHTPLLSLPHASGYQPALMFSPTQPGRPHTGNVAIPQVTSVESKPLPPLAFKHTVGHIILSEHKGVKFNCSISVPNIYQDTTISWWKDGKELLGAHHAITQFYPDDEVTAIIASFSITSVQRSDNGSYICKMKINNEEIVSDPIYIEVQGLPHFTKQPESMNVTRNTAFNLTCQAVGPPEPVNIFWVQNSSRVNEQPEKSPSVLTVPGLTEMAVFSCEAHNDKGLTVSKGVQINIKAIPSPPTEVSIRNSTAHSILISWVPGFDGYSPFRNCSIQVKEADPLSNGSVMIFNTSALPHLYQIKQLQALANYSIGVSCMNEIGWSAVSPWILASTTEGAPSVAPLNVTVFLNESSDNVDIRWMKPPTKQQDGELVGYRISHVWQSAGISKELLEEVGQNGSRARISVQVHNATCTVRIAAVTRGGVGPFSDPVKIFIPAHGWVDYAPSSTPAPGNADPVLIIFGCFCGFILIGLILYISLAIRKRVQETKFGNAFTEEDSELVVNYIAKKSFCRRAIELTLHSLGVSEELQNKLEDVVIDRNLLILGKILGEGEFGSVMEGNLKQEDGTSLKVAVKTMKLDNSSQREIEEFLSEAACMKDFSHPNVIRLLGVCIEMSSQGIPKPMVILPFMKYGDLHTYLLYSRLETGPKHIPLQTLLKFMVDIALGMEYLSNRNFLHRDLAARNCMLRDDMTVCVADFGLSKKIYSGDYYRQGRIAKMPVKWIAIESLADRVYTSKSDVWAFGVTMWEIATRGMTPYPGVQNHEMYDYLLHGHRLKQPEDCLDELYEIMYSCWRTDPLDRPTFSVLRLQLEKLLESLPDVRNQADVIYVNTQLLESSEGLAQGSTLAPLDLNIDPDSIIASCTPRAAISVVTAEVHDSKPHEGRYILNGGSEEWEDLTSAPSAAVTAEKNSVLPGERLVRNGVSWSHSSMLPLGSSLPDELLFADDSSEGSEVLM
OBSERVABLE: inhibition (%)

{"STRUCTURE": "CC(=O)Nc1cccc(C#Cc2cncnc2Nc2ccc(OCc3cccc(F)c3)c(Cl)c2)c1", "VALUE_UNIT": "%", "ASSAY_RESULT": 2.65}
{"STRUCTURE": "NS(=O)(=O)c1ccc(Nc2ncc(-c3ccccc3)o2)cc1", "VALUE_UNIT": "%", "ASSAY_RESULT": 5.27}
{"STRUCTURE": "CNC(=O)c1cncc(/C=C/c2ccccc2Cl)c1", "VALUE_UNIT": "%", "ASSAY_RESULT": 2.42}
{"STRUCTURE": "COc1ccc(-c2cc3c(N)ncnc3o2)cc1", "VALUE_UNIT": "%", "ASSAY_RESULT": 2.01}
{"STRUCTURE": "COc1cc(Nc2nccc(Nc3ccc4c(C)n[nH]c4c3)n2)cc(OC)c1OC", "VALUE_UNIT": "%", "ASSAY_RESULT": 14.4}
{"STRUCTURE": "Fc1ccc(-c2nn3ccccc3c2-c2ccncc2)cc1", "VALUE_UNIT": "%", "ASSAY_RESULT": 2.6}
{"STRUCTURE": "CC(=O)NCc1cccc(C#Cc2cncnc2Nc2ccc(OCc3cccc(F)c3)c(Cl)c2)c1", "VALUE_UNIT": "%", "ASSAY_RESULT": 2.93}
{"STRUCTURE": "FC(F)(F)c1cccc(-c2nn3ncccc3c2-c2ccnc(Nc3ccc4c(c3)OCCO4)n2)c1", "VALUE_UNIT": "%", "ASSAY_RESULT": 40}
{"STRUCTURE": "COc1cc2ncn(-c3cc(OCc4ccccc4C(F)(F)F)c(C(=O)N(C)C)s3)c2cc1OC", "VALUE_UNIT": "%", "ASSAY_RESULT": 2.36}
{"STRUCTURE": "Fc1cccc(COc2ccc(Nc3ncnc4sc(-c5ccco5)cc34)cc2Cl)c1", "VALUE_UNIT": "%", "ASSAY_RESULT": 3.51}
{"STRUCTURE": "CC(C)COC(=O)c1ccc2c(c1)/C(=C/Nc1ccc(S(N)(=O)=O)cc1)C(=O)N2", "VALUE_UNIT": "%", "ASSAY_RESULT": 4.37}
{"STRUCTURE": "CC(C)(CO)CNC(=O)c1ccc2c(c1)/C(=N/Nc1ccc(S(N)(=O)=O)cc1)C(=O)N2", "VALUE_UNIT": "%", "ASSAY_RESULT": 1.33}
{"STRUCTURE": "COc1cc(/C=N/Nc2ncnc3[nH]ncc23)ccc1O", "VALUE_UNIT": "%", "ASSAY_RESULT": 9.92}
{"STRUCTURE": "CN1CCC(n2cnc(-c3ccc(F)cc3)c2-c2ccnc(Nc3ccccc3)n2)CC1", "VALUE_UNIT": "%", "ASSAY_RESULT": 6.83}
{"STRUCTURE": "CNC(=O)c1cc(-c2ccc(F)cc2)cc(-c2ccc(S(=O)(=O)N3CCCC3)cc2)c1N", "VALUE_UNIT": "%", "ASSAY_RESULT": 2.3}
{"STRUCTURE": "COc1ccc2[nH]c3c4[nH]c5ccc(OC)cc5c4c4c(c3c2c1)C(=O)NC4=O", "VALUE_UNIT": "%", "ASSAY_RESULT": 50.1}
{"STRUCTURE": "CN(C)CCOc1ccc(-c2nc(-c3ccncc3)c(-c3ccc4c(c3)CC/C4=N\\O)[nH]2)cc1", "VALUE_UNIT": "%", "ASSAY_RESULT": 4.76}

Hey, just so you know, these numbers are from ChEMBL document CHEMBL1961873.
